assay-info: HCT116 colon cancer cell growth inhibition, primary screen, CellTiter-Glo luminescence, NPC library (AID 1117342)
test-parameters: at 20 µM (top of the series)
Active and inactive are the calls of the source.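 How the source made its calls: active means compounds that lower survival of HCT116 colon cancer cells in the luminescence readout, no numeric limit stated; inactive means the rest.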
The reply should be one of these categories: active, inactive

stdin: Query: recorded result category for `CN1CC[C@H](c2c(O)cc(O)c3c(=O)cc(-c4ccccc4Cl)oc23)[C@H](O)C1` in this test
stdout: active

New cases:
stdin: Query: recorded result category for `CC(C)c1c(C(=O)Nc2ccccc2)c(-c2ccccc2)c(-c2ccc(F)cc2)n1CC[C@@H](O)C[C@@H](O)CC(=O)O` in this test
stdout: active

stdin: Query: recorded result category for `CCOc1ccc2nc(S(N)(=O)=O)sc2c1` in this test
stdout: inactive
